# protocol.details: CCTE_Mundy_HCI_hNP1_Pro_ResponderAvgInten: CCTE's Proliferation Assay in human neuroprogenitor cells, Mundy Lab (AID 2284224)
# Protocol: CCTE_Mundy_HCI_hNP1_Pro is a multiplexed, cell-based-readout assay that uses neural stem cells derived from a neuroepithelial cell lineage of WA09 embryonic cells with measurements taken at 26.25 hours after chemical dosing in a microplate: 96-well plate.CCTE_Mundy_HCI_hNP1_Pro_ResponderAvgInten is one of three components of the CCTE_Mundy_HCI_hNP1_Pro assay. […]
Inconclusive results are not listed. Calls of active or inactive are those of the source. The calls were made as follows: active = hit-call score of the fitted dose curve at least 0.9, where 1 is the maximum; inconclusive = response in the unintended direction; inactive = score below 0.9.
Mark one answer only. Choices: 1 for active, 0 for inactive

Name the outcome recorded for Cc1c(COC(=O)[C@@H]2[C@H](/C=C(\Cl)C(F)(F)F)C2(C)C)cccc1-c1ccccc1 in the assay.
1

Name the outcome recorded for N#CN=C1SCCN1Cc1ccc(Cl)nc1 in the assay.
0

Name the outcome recorded for CO/N=C(/C1=NOCCO1)c1ccccc1Oc1ncnc(Oc2ccccc2Cl)c1F in the assay.
0

Name the outcome recorded for C=C(C)CN(CC)c1c([N+](=O)[O-])cc(C(F)(F)F)cc1[N+](=O)[O-] in the assay.
1
